Could you please report measured gcPBM binding intensity (ln) for the items listed next?
system: PfAP2-I AP2 domain 3 (GST-tagged); test: gcPBM binding intensity (ln(normalized median fluorescence intensity)); higher = stronger DNA binding
Whole data set: some 25,000 sequences, median “ln(normalized median fluorescence intensity)” near 7.9, cut for the highest 2% near 11. The sample holds the highest values, similar sequences and a random draw of the others, so the mix is not that of the screen.
Give the figure only, with no unit attached.

(Q) For the sequence shown here, TGTATAATATTTGGTGCACACAAATTAACAACTGTT [CACACA_site9245] , give the reported gcPBM binding intensity (ln).
(A) 11.1

(Q) For the sequence shown here, TATAATATTTGGTGCACACAAATTAACAACTGTTTA [CACACA_site3742] , give the reported gcPBM binding intensity (ln).
(A) 11.1

(Q) For the sequence shown here, AGTAGTCTGGAGAAAAGTACATAGTATCTGGTAGCT [XGTACX_site2027] , give the reported gcPBM binding intensity (ln).
(A) 7.98

(Q) For the sequence shown here, CTTTGTAGTATATTAACACACAACTGTTTATAATAT [CACACA_site6038] , give the reported gcPBM binding intensity (ln).
(A) 7.77

(Q) For the sequence shown here, TTCTTTGTAGTATATTAACACACAACTGTTTATAAT [CACACA_site9305] , give the reported gcPBM binding intensity (ln).
(A) 8.02

---

tested on: PfAP2-I AP2 domain 3 (GST-tagged); test: gcPBM binding intensity (ln(normalized median fluorescence intensity)); higher = stronger DNA binding
The full ranking holds about 25,000 sequences; the median of “ln(normalized median fluorescence intensity)” is about 7.9, and the highest 2% start at about 11. What follows is part of a selection rich in the highest values, with near analogues and random picks from the rest.
Response key: rule met means gcPBM binding intensity (ln) >= 9; rule not met means gcPBM binding intensity (ln) < 9.

(Q) Decide: gcPBM binding intensity (ln) of AAAAAAAAAAAAAAAGTGCATTAATAAATTTTAATA >= 9?
(A) rule met

(Q) Decide: gcPBM binding intensity (ln) of TATATAATATATATAGTGCATAAGTTCAAAAGAATA [GTGCAC_site9805] >= 9?
(A) rule met

(Q) Decide: gcPBM binding intensity (ln) of TACTATTTTTATAATACACACATATATTTGTGATAT [CACACA_site1775] >= 9?
(A) rule not met

(Q) Decide: gcPBM binding intensity (ln) of ATTTATATAAAGAATGTACACACAGAAATGCACCCA [CACACA_site8715] >= 9?
(A) rule met

(Q) Decide: gcPBM binding intensity (ln) of TGAATAAATAAACACACACACATATATATATCTGTA [CACACA_site4184] >= 9?
(A) rule not met

(Q) Decide: gcPBM binding intensity (ln) of AAAATAAAATAAAAGTGTACGTTTTAAGAACATTGA [XGTACX_site2382] >= 9?
(A) rule not met

(Q) Decide: gcPBM binding intensity (ln) of GAAATGTATAAATCCATACACACATAAATTTTAATA [CACACA_site2364] >= 9?
(A) rule not met

(Q) Decide: gcPBM binding intensity (ln) of TTATATAAAGAATGTACACACAGAAATGCACAGACA [CACACA_site5288] >= 9?
(A) rule met

(Q) Decide: gcPBM binding intensity (ln) of ACTTAATTTTTTTATTGTACATGTAAATGAGGGAAA [XGTACX_site6305] >= 9?
(A) rule not met

(Q) Decide: gcPBM binding intensity (ln) of ATTAATAAAAAATTTTAAAAAATAAATAAAATAAAA [TGCATGCA_negctrl_site113] >= 9?
(A) rule not met

(Q) Decide: gcPBM binding intensity (ln) of CTGAAATTAACAAAAGTGCATAAAAATAAAAAATAT [GTGCAC_site9652] >= 9?
(A) rule met

(Q) Decide: gcPBM binding intensity (ln) of AACTATTTTATTATATGTACTTACGAATTTATAAAA [XGTACX_site5262] >= 9?
(A) rule not met

(Q) Decide: gcPBM binding intensity (ln) of ATTTTATTTTATTAAGTGCAAAAAAAAAAAAAGAAA >= 9?
(A) rule met

(Q) Decide: gcPBM binding intensity (ln) of TTTCTCCATATTAAAGTGCATTAATAACAAAAATAA [GTGCAC_site9934] >= 9?
(A) rule met

(Q) Decide: gcPBM binding intensity (ln) of AAAAAGGTTAAGGTAGTGCATAATAAAGAATATTAA >= 9?
(A) rule met

(Q) Decide: gcPBM binding intensity (ln) of GAAAGAAGCATAAATGTACACACATATTTATATATT [CACACA_site8368] >= 9?
(A) rule not met

(Q) Decide: gcPBM binding intensity (ln) of ATATATATTATGTGTGTGCACTTTTGTTATTATTAT >= 9?
(A) rule met

(Q) Decide: gcPBM binding intensity (ln) of AAAAAAAAAAAAAAAAGTACATGAAAAAAAGAAGAA [XGTACX_site8384] >= 9?
(A) rule not met

(Q) Decide: gcPBM binding intensity (ln) of TACACACCTAACTATGCATGCATCAATATAGTGGAT [TGCATGCA_site443] >= 9?
(A) rule not met

(Q) Decide: gcPBM binding intensity (ln) of GAACAACAACAAAAAAAAAAAAAAAAAAAAAAAAAA [CACACA_negctrl_site199] >= 9?
(A) rule not met

(Q) Decide: gcPBM binding intensity (ln) of TATAATATATTCATGTGTACATATATTTCGAACATA [XGTACX_site1754] >= 9?
(A) rule not met

(Q) Decide: gcPBM binding intensity (ln) of ATGTTATAAGATTTATGTACACACATATACACACCT [XGTACX_site1316] >= 9?
(A) rule not met

(Q) Decide: gcPBM binding intensity (ln) of TTATTAAATTCATAAGTGCATTTATGATTAATTTTT [GTGCAC_site9749] >= 9?
(A) rule met

(Q) Decide: gcPBM binding intensity (ln) of TTTTTTTCATAAGAAGCACACAAAAAATGATAGAGA [CACACA_site8401] >= 9?
(A) rule not met

(Q) Decide: gcPBM binding intensity (ln) of TATGGATAAATAAATACACACATAAATTTAAATATA [CACACA_site1282] >= 9?
(A) rule not met

(Q) Decide: gcPBM binding intensity (ln) of ATTATGTATACATAAACACACATATATATAAAAAAA [CACACA_site262] >= 9?
(A) rule not met

(Q) Decide: gcPBM binding intensity (ln) of ATCAAAATGTTAAAGATACACACCTAACAAACACAA [CACACA_site955] >= 9?
(A) rule not met

(Q) Decide: gcPBM binding intensity (ln) of CATTTATATAAAGAATGTACACACAGAAATGCACAC [XGTACX_site4718] >= 9?
(A) rule met

(Q) Decide: gcPBM binding intensity (ln) of AAAAAGAATATAAGTAGTACAGTGCATATAATAATT [XGTACX_site617] >= 9?
(A) rule met

(Q) Decide: gcPBM binding intensity (ln) of TTATATAAAGAATGTACACACAGAAATGCACCCACA [CACACA_site2282] >= 9?
(A) rule met

(Q) Decide: gcPBM binding intensity (ln) of ATTGTCAAAACACGCACACACATATACATAATAACA [CACACA_site1742] >= 9?
(A) rule not met

(Q) Decide: gcPBM binding intensity (ln) of TTTTGTTACTTTTATGTGCACTTATAAAACGAACTA [GTGCAC_site9551] >= 9?
(A) rule met

(Q) Decide: gcPBM binding intensity (ln) of AAGAAAGACATTACGTGTACCAAACAACCTACCAAC [XGTACX_site4219] >= 9?
(A) rule not met

(Q) Decide: gcPBM binding intensity (ln) of GATTATTTCTAAAAAGTGCATATTTAAAAATCTCCT >= 9?
(A) rule met

(Q) Decide: gcPBM binding intensity (ln) of TCATTTTAATTAAAAGTGCAAAAAATAATATAACTA [GTGCAC_site9968] >= 9?
(A) rule met

(Q) Decide: gcPBM binding intensity (ln) of GAAATAAATATAATATATATATATATATATATATGT [TGCATGCA_negctrl_site216] >= 9?
(A) rule not met
